System Under Test: human CD33 R286A (human, UniProt P20138 18-364)
Sequence (P20138 18-364 R286A limits assumed): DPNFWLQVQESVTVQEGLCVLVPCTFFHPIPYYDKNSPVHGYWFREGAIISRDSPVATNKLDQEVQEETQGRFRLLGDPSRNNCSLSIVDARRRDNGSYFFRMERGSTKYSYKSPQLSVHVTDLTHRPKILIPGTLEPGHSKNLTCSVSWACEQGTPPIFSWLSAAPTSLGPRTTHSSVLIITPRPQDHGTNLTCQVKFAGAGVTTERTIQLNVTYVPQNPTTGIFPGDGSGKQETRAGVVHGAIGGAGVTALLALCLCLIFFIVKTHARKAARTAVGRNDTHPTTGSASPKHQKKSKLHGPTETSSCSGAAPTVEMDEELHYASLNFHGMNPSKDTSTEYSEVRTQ
Experiment Summary: alanine scan, flow cytometry, HEK293-T;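 further: antibody binding to each alanine-substituted CD33 mutant expressed transiently in HEK293-T, read as fluorescence minus background, mean of duplicates, relative to wild-type CD33 set as 100%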
Assay Endpoint: Mean % WT Binding (% WT binding)
Kindly provide the numeric value in % WT binding only, without the unit symbol.

Challenge: What value of Mean % WT Binding has been reported for the following binder? Refmab #4 (antibody, V domains shown, The alanine scan used IgG or Fab) VH: QVQLVQSGAEVKKPGESVKVSCKASGYTFTNYGMNWVKQAPGQGLEWMGWINTYTGEPTYADKFQGRVTMTTDTSTSTAYMEIRNLGGDDTAVYYCARWSWSDGYYVYFDYWGQGTSVTVSS VL: DIVMTQSPDSLTVSLGERTTINCKSSQSVLDSSTNKNSLAWYQQKPGQPPKLLLSWASTRESGIPDRFSGSGSGTDFTLTIDSPQPEDSATYYCQQSAHFPITFGQGTRLEIK
Response given: 101

From: patent US20260242735A1
